molecular target: Sox2 HMG (human, UniProt P48431 40-123); assay: fluorescence anisotropy; apparent; Hill n 0.68; FP at 4°C; ERα: 20 mM Tris pH 7.5 (at 25°C), 100 mM NaCl, 5% glycerol, 0.01% IGEPAL; Sox2: 10 mM Tris pH 7.5 (at 25°C), 135 mM KCl, 15 mM NaCl, 0.1 mg/mL BSA, 4% Ficoll, 0.05% NP-40, 1 mM DTT; SPR: ERα buffer, 25°C; conditions: protein: recombinant; tags: N-terminal His8-MBP, 3C-cleaved
Sequence (P48431 40-123): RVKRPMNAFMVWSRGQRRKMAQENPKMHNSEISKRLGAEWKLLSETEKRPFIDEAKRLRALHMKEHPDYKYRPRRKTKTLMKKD
Recorded Metric: Kd (nM)
Value expressed in nM; do not type the unit.

Lookup result for AAAAAAAAAAAAAAAAAAAA (ssRNA) [poly(A) RNA (rA20)] ; measured Kd: 40
